experiment.summary: Inhibition of Plasmodium vivax NMT
readout: IC50 (µM)
Report as a plain number; the unit µM is understood.

Exam item: For O=C(c1cccc(NCc2cc(-c3ccc(Cl)cc3)c[nH]c2=O)c1)N1CCOCC1 , write its IC50.
Marked response: 3.4
